The reported numbers originate from paper PMC2596764.

# Assay target: HLA-A*0201 (HLA-A2) heavy chain refolded with β2-microglobulin
# Test: radioligand binding
Non-standard residues stand in square brackets, D forms with d. No end group written: not given here. pS = N[C@@H](COP(=O)(O)O)C(=O)O
Outcome measure: pIC50
pIC50 is defined as minus the log10 of a concentration measured in mol/L.

// known answers, use as guide
>  <Binder>
RQA[pS]IELPSM [RQApSIELPSM]

>  <pIC50>
7.95

$$$$
>  <Binder>
RTYSGPMNKV (not fully specified) [… (non-phosphorylated counterpart of RTYpSGPMNKV)]

>  <pIC50>
6.10

$$$$
>  <Binder>
KLIDRTE[pS]L [KLIDRTEpSL]

>  <pIC50>
7.20

$$$$

Requested read-out: pIC50. Entry: RTY[pS]GPMNKV [RTYpSGPMNKV]
6.93

// same read-out, input: KLIDRTESL (not fully specified) [… (non-phosphorylated counterpart of KLIDRTEpSL)]
6.99

Then this binder: GLLG[pS]PVRA [GLLGpSPVRA]
6.77

Likewise for YLDSGIHSGA (not fully specified) [… (non-phosphorylated counterpart of YLDpSGIHSGA)] ?
7.08

What do we get for RVA[pS]PTSGV [RVApSPTSGV] ?
6.75

Another binder to check: RTFSPTYGL (not fully specified) [… (non-phosphorylated counterpart of RTFpSPTYGL)]
6.39
